B1: Twister Ribozyme (parent)
chain: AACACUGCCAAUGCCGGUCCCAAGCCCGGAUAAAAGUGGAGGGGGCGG

Variants of: B1
PROTOCOL_SUMMARY: self-cleavage, relative activity (ratio to wild type); higher = more cleavage; co-transcriptional
ASSAY_READOUT: self-cleavage
Reply briefly: the number, and no unit.

C19A C46U : 0.304
U6C A11C : 0.292

// below: self-cleavage requested for another variant
Give the value of self-cleavage reported for the following: C8A U37G
0.3

Data provenance is the RNAGym collection of RNA variant scans (doi:10.7554/elife.80360).
